Species: Homo sapiens
experimental-protocol: Binding affinity to RBC membrane receptor in human RBC assessed as specific binding activity measured as ratio of specifically bound peptide/added peptide by gamma counter

{"substance": "H-NYEHPNNYQQKNDEKISLQH-OH", "Activity": "< 2%"}
{"substance": "H-YNKNNIKDIYQQFKNIQQQL-OH", "Activity": "> 2%"}
{"substance": "H-EKGKRGTSRNNNIHTNENNIY-OH", "Activity": "< 2%"}
{"substance": "H-LNFTHKTIQQILQQQYKNNT-OH", "Activity": "> 2%"}
{"substance": "H-QEKNTLAQFLYNADIKKYID-OH", "Activity": "> 2%"}
{"substance": "H-FDQINQKYDDLTKNINQMND-OH", "Activity": "< 2%"}
{"substance": "H-DDNFIEYNILNADPDLRSHF-OH", "Activity": "< 2%"}
{"substance": "H-LFDYTHLWDNAQFTRTKENI-OH", "Activity": "> 2%"}
{"substance": "H-YNTSSQQKNNLHTNNNSNSR-OH", "Activity": "< 2%"}
{"substance": "H-LNTILHRNEQTKNATRSYNM-OH", "Activity": "> 2%"}
{"substance": "H-KIHTLEELKILTQEINDKNVY-OH", "Activity": "< 2%"}
{"substance": "H-KYNLPQERIIKNYNHNGINN-OH", "Activity": "< 2%"}
{"substance": "H-IQERNQNNQIVKELKYNKQI-OH", "Activity": "< 2%"}
{"substance": "H-QEQNRIYNELQNKIKQIKNV-OH", "Activity": "> 2%"}

This collection of values is drawn from ChEMBL document CHEMBL1250450.
